biological target: human S1P1 receptor (Homo sapiens, UniProt P21453); construct: membrane preparation; assay: GTP γ35S binding assay for S1P1 activity; settings: membranes of cells stably expressing the S1P1 receptor, test compounds 0.08 to 5,000 nM, 30 min at 25° C.
Sequence (P21453 whole entry): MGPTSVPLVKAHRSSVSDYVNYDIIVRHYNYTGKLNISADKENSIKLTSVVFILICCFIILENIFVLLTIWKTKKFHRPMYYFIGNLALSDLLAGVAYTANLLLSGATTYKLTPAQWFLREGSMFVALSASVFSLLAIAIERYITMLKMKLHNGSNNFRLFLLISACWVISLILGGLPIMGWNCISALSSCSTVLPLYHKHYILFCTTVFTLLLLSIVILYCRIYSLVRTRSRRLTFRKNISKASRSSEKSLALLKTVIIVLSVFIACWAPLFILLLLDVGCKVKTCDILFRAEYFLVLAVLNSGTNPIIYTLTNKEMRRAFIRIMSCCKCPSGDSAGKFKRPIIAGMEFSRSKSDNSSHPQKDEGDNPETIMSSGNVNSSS
Assign pEC50 to each entry below.
Scale: pEC50 equals -log10([C]), with [C] in mol/L.

-- ask Bench note: what pEC50 did Cc1ccc(CC(c2cc(F)cc(F)c2)c2nc(-c3ccc(CCC(N)(CO)CO)cc3)no2)cc1C (stereo not drawn) [Compound 1] show?
-- reply 7.06

-- ask What do you get for Cc1ccc(CC(c2nc(-c3ccc(CCC(N)(CO)CO)cc3)no2)c2cccs2)cc1C (stereo not drawn) ?
-- reply 5.92

-- ask Now this one: Cc1ccc(CC(c2cccc(Cl)c2)c2nc(-c3ccc(CCC(N)(CO)CO)cc3)no2)cc1C (stereo not drawn)
-- reply 6.76
